Organism: Rattus norvegicus
Protocol Text: Inhibitory activity against superoxide anion generation in rat neonatal brain microglia cells
Format: functional, cell-based
Quantity Kind: IC50

Molecule | Assay Result
Oc1cccc2c1[nH]c1c(C3=C[C@@]4(O)CC/C=C\CCCCN5CC[C@@H]3[C@]3(CC6/C=C\CCCCN6[C@H]34)C5)nccc12 (stereo partly specified) | > 30 µM

----------
Protocol Text: Tmax in rats
Assay type: ADME, organism-based
Condition Context: rat, in vivo
Quantity Kind: Tmax (h)

Compound | Quantity Kind | Assay Result
O[C@]12C=C(c3[nH]ccc4c5ccccc5nc3-4)[C@@H]3CCN(CCCC/C=C\CC1)C[C@@]31C[C@@H]3/C=C\CCCCN3[C@H]12 [MANZAMINE] | Tmax | 10

----------
Protocol Text: Cmax in rats
Type: ADME, organism-based
Condition Context: rat, in vivo

Compound String | Unit Label | Cmax
O[C@]12C=C(c3[nH]ccc4c5ccccc5nc3-4)[C@@H]3CCN(CCCC/C=C\CC1)C[C@@]31C[C@@H]3/C=C\CCCCN3[C@H]12 | ng/mL | 1070

----------
Protocol Text: Half-life at 10 mg/kg in rat upon intravenous administration
Assay type: ADME, organism-based
Set-up: dose 10 mg/kg, route intravenous
Condition Context: in vivo

Compound String | Unit Label | half-life
O[C@]12C=C(c3[nH]ccc4c5ccccc5nc3-4)[C@@H]3CCN(CCCC/C=C\CC1)C[C@@]31C[C@@H]3/C=C\CCCCN3[C@H]12 | h | 53.7

----------
Protocol Text: Inhibitory activity against thromboxane B2
Set-up: species or system Rattus norvegicus
Quantity Kind: IC50

Compound | Quantity Kind | Assay Result
Oc1cccc2c1[nH]c1c(C3=C[C@@]4(O)CC/C=C\CCCCN5CC[C@@H]3[C@]3(CC6/C=C\CCCCN6[C@H]34)C5)nccc12 (stereo partly specified) | IC50 | > 30 µM

----------
Protocol Text: Partition coefficient (logP)
Format: physicochemical
Condition Context: octanol/water
Quantity Kind: logP

Compound String | Quantity Kind | Assay Result
O[C@]12C=C(c3[nH]ccc4c5ccccc5nc3-4)[C@@H]3CCN(CCCC/C=C\CC1)C[C@@]31C[C@@H]3/C=C\CCCCN3[C@H]12 | logP | 8.34

----------
Protocol Text: Apparent volume of distribution at 10 mg/kg in rat upon intravenous administration
Assay type: ADME, organism-based
Design: dose 10 mg/kg, route intravenous
Condition Context: in vivo

Compound String | Unit Label | Vd
O[C@]12C=C(c3[nH]ccc4c5ccccc5nc3-4)[C@@H]3CCN(CCCC/C=C\CC1)C[C@@]31C[C@@H]3/C=C\CCCCN3[C@H]12 | L/kg | 23.7

Every entry's value here was drawn from ChEMBL document CHEMBL1148348.
